Assay: chemical genetic growth profiling, strain panel (AID 1159580);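 further: tested at 20 µM; growth read once vehicle control cultures reached saturation at 30 °C; 1 = growth at the plate median or of vehicle wells; lower values mean less growth of the strain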
Details: S. cerevisiae deletion strains, growth OD, locus YOR184W, strain ser1, active compounds read low
Screen size: about 5,500 compounds; about 2,000 (36%) were called active. About 18% were inconclusive and are not listed. The list shows a part of the results.
I'd appreciate it if you could supply normalized growth values for the items below.
One number for each entry.

{"columns": ["molecule", "quantity-kind", "assay-value"],
 "data": [
  ["Cc1ccccc1OCC(O)CO (stereo not given)", "normalized growth", 1.01],
  ["CCCCOc1cc(C(=O)NCCN(CC)CC)c2ccccc2n1", "normalized growth", 0.995],
  ["CC1(C)C=CC(=O)[C@@]2(C)C1CC(=O)[C@]1(C)C2CC[C@@]2(C)[C@H](c3ccoc3)OC(=O)C3OC321 (stereo not given in full)", "normalized growth", 0.922],
  ["Cc1[nH]ccc2c1[nH]c1cc(=O)ccc12", "normalized growth", 1]
]}

Next up:
Please supply the value of reported normalized growth for the item CC1(C)C(=O)C=C[C@@]2(C)C1C[C@@H](O)[C@]1(C)C2CC[C@@]2(C)[C@H](c3ccoc3)OC(=O)[C@H]3O[C@]321 (stereo not given in full)
0.896

---

Test: chemical genetic growth profiling, strain panel (AID 1159580);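 further: tested at 20 µM; growth read once vehicle control cultures reached saturation at 30 °C; 1 = growth at the plate median or of vehicle wells; lower values mean less growth of the strain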
Settings: S. cerevisiae deletion strains, growth OD, locus YPR119W, strain clb2, active compounds read low
Among all 5,500 compounds or so, about 2,000 (36%) were called active. Another 18% or so got no clear call; they are omitted. This is one part of the list.
I'd appreciate it if you could supply normalized growth values for the items below.

{"columns": ["molecule", "assay-value"],
 "data": [
  ["CC1(C)C=CC(=O)[C@@]2(C)C1CC(=O)[C@]1(C)C2CC[C@@]2(C)[C@H](c3ccoc3)OC(=O)C3OC321 (stereo not given in full)", "0.985 (inactive)"],
  ["CCCC(C)(COC(N)=O)COC(=O)NC(C)C (stereo not given)", "0.977 (inactive)"],
  ["O=c1cc(-c2ccc(O)cc2)oc2cc(O[C@@H]3O[C@H](CO)[C@@H](O)[C@H](O)[C@H]3O)cc(O)c12", "0.989 (inactive)"],
  ["COc1ccc2ccc(=O)oc2c1", "1.01 (inactive)"],
  ["OCC(O)C(O)C(O)C(O)C(O)CO (stereo not given)", "0.997 (inactive)"]
]}

Lab note: each molecule below needs its normalized growth filled in.
1. CC1(C)C(=O)C=C[C@@]2(C)C1C[C@@H](O)[C@]1(C)C2CC[C@@]2(C)[C@H](c3ccoc3)OC(=O)[C@H]3O[C@]321 (stereo not given in full)
2. C[N+](C)(C)CC(O)CC(=O)O (stereo not given)

1. 0.985 (inactive)
2. 0.988 (inactive)

---

Test: chemical genetic growth profiling, strain panel (AID 1159580);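 further: tested at 20 µM; growth read once vehicle control cultures reached saturation at 30 °C; 1 = growth at the plate median or of vehicle wells; lower values mean less growth of the strain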
Conditions: S. cerevisiae deletion strains, growth OD, locus YNL161W, strain CBK1
Among all 5,500 compounds or so, about 2,000 (36%) were called active. Roughly 18% stayed inconclusive and do not appear here. No stated cut-off is given here; in the data, active means normalized growth mostly below about 0.91 (no sharp cut-off); inconclusive means no clear call, values can overlap the other calls; inactive means mostly above about 0.92. Some of the results follow.
Assign a class; possible classes are active, inactive

Look over these answered cases.
{"columns": ["smi", "group-label"],
 "data": [
  ["OC(COc1ccc(F)cc1)(c1ccccc1)c1ccccc1", "inactive"],
  ["O=C1/C(=C/c2ccccn2)CCc2ccccc21", "inactive"]
]}

Please share the test call associated with Cc1cc(Cl)ccc1NNC(=O)c1sccc1Br .
inactive

Please share the test call associated with Oc1c(Br)cc(Br)cc1C=Nc1ccc(Sc2ccccc2)nc1Sc1ccccc1 .
inactive

Please share the test call associated with Cc1ccc(NNC(=O)c2cccs2)cc1Cl .
inactive

Please share the test call associated with Oc1c(Cl)cc(Cl)cc1/C=N\NC(=S)Nc1cc(C(F)(F)F)cc(C(F)(F)F)c1 .
active

Please share the test call associated with Oc1c(Br)cc(Br)cc1/C=N\n1cnnc1 .
inactive

Please share the test call associated with O=C(NNc1ccc(F)cc1F)c1sccc1Cl .
inactive
